The values you see were collected from paper PMC9623233.

assay_explanation: CT900 plasma pharmacokinetics, noncompartmental analysis
Assay type: in vivo, human
condition_label: human, plasma, iv, 12 mg/m2, Cl, 12 mg/m^2 i.v., Cycle 1 Day 1; Mean, N 5
measurement_name: clearance (mL/min)
Express the result in mL/min but write the number alone.

QUERY: Fill in the blank: the reported clearance of C#CCN(c1ccc(C(=O)N[C@@H](CCC(=O)N[C@H](CCC(=O)O)C(=O)O)C(=O)O)cc1)[C@H]1CCc2cc3nc(CO)[nH]c(=O)c3cc21 [CT900] is ____.
RESULT: 3.6

----------
assay_explanation: CT900 plasma pharmacokinetics, noncompartmental analysis
Format: in vivo, human
condition_label: human, plasma, iv, 2 mg/m2, AUC0-24, 2 mg/m^2 i.v., Cycle 1 Day 1; Median, N 4
measurement_name: AUC(0-t) (ng·h/mL)
Express the result in ng·h/mL but write the number alone.

QUERY: Fill in the blank: the reported AUC(0-t) of "C#CCN(c1ccc(C(=O)N[C@@H](CCC(=O)N[C@H](CCC(=O)O)C(=O)O)C(=O)O)cc1)[C@H]1CCc2cc3nc(CO)[nH]c(=O)c3cc21" is ____.
RESULT: 4730

----------
assay_explanation: CT900 plasma pharmacokinetics, noncompartmental analysis
Format: in vivo, human
condition_label: human, plasma, iv, 1 mg/m2, AUC0-24, 1 mg/m^2 i.v., Cycle 1 Day 1; Range, N 3
measurement_name: AUC(0-t)

QUERY: Fill in the blank: the reported AUC(0-t) of C#CCN(c1ccc(C(=O)N[C@@H](CCC(=O)N[C@H](CCC(=O)O)C(=O)O)C(=O)O)cc1)[C@H]1CCc2cc3nc(CO)[nH]c(=O)c3cc21 [CT900] is ____.
RESULT: 1020 to 2330 ng·h/mL

----------
assay_explanation: CT900 plasma pharmacokinetics, noncompartmental analysis
Format: in vivo, human
condition_label: human, plasma, iv, 1 mg/m2, AUC0-24, 1 mg/m^2 i.v., Cycle 1 Day 1; Mean, N 3
measurement_name: AUC(0-t)
The number alone won't do; follow it with the unit.

QUERY: Fill in the blank: the reported AUC(0-t) of C#CCN(c1ccc(C(=O)N[C@@H](CCC(=O)N[C@H](CCC(=O)O)C(=O)O)C(=O)O)cc1)[C@H]1CCc2cc3nc(CO)[nH]c(=O)c3cc21 [CT900] is ____.
RESULT: 1650 ng·h/mL

----------
assay_explanation: CT900 plasma pharmacokinetics, noncompartmental analysis
Assay type: in vivo, human
condition_label: human, plasma, iv, 6 mg/m2, AUC0-24, 6 mg/m^2 i.v., Cycle 1 Day 1; Mean, N 1
measurement_name: AUC(0-t)

QUERY: Fill in the blank: the reported AUC(0-t) of "C#CCN(c1ccc(C(=O)N[C@@H](CCC(=O)N[C@H](CCC(=O)O)C(=O)O)C(=O)O)cc1)[C@H]1CCc2cc3nc(CO)[nH]c(=O)c3cc21" is ____.
RESULT: 15100 ng·h/mL

----------
assay_explanation: CT900 plasma pharmacokinetics, noncompartmental analysis
Format: in vivo, human
condition_label: human, plasma, iv, 2 mg/m2, Vss, 2 mg/m^2 i.v., Cycle 1 Day 1; Range, N 4
measurement_name: Vd

QUERY: Fill in the blank: the reported Vd of "C#CCN(c1ccc(C(=O)N[C@@H](CCC(=O)N[C@H](CCC(=O)O)C(=O)O)C(=O)O)cc1)[C@H]1CCc2cc3nc(CO)[nH]c(=O)c3cc21" is ____.
RESULT: 6.53 to 12.7 L

----------
assay_explanation: CT900 plasma pharmacokinetics, noncompartmental analysis
Assay type: in vivo, human
condition_label: human, plasma, iv, 1 mg/m2, AUClast, 1 mg/m^2 i.v., Cycle 1 Day 1; Median, N 3
measurement_name: AUC(0-t) (µg·h/mL)
Express the result in µg·h/mL but write the number alone.

QUERY: Fill in the blank: the reported AUC(0-t) of "C#CCN(c1ccc(C(=O)N[C@@H](CCC(=O)N[C@H](CCC(=O)O)C(=O)O)C(=O)O)cc1)[C@H]1CCc2cc3nc(CO)[nH]c(=O)c3cc21" is ____.
RESULT: 1.62

----------
assay_explanation: CT900 plasma pharmacokinetics, noncompartmental analysis
Format: in vivo, human
condition_label: human, plasma, iv, 1 mg/m2, C max, 1 mg/m^2 i.v., Cycle 1 Day 1; Median, N 3
measurement_name: Cmax (ng/mL)
Express the result in ng/mL but write the number alone.

QUERY: Fill in the blank: the reported Cmax of C#CCN(c1ccc(C(=O)N[C@@H](CCC(=O)N[C@H](CCC(=O)O)C(=O)O)C(=O)O)cc1)[C@H]1CCc2cc3nc(CO)[nH]c(=O)c3cc21 [CT900] is ____.
RESULT: 401

----------
assay_explanation: CT900 plasma pharmacokinetics, noncompartmental analysis
Assay type: in vivo, human
condition_label: human, plasma, iv, 12 mg/m2, Cl, 12 mg/m^2 i.v., Cycle 1 Day 1; Range, N 5
measurement_name: clearance

QUERY: Fill in the blank: the reported clearance of C#CCN(c1ccc(C(=O)N[C@@H](CCC(=O)N[C@H](CCC(=O)O)C(=O)O)C(=O)O)cc1)[C@H]1CCc2cc3nc(CO)[nH]c(=O)c3cc21 [CT900] is ____.
RESULT: 2.1 to 5.05 mL/min

----------
assay_explanation: CT900 plasma pharmacokinetics, noncompartmental analysis
Format: in vivo, human
condition_label: human, plasma, iv, 12 mg/m2, T max, 12 mg/m^2 i.v., Cycle 1 Day 1; Median, N 5
measurement_name: Tmax (h)
Express the result in h but write the number alone.

QUERY: Fill in the blank: the reported Tmax of "C#CCN(c1ccc(C(=O)N[C@@H](CCC(=O)N[C@H](CCC(=O)O)C(=O)O)C(=O)O)cc1)[C@H]1CCc2cc3nc(CO)[nH]c(=O)c3cc21" is ____.
RESULT: 1
